Origin of values: patent US20200339548A1

# target: Adenosine A2a receptor (Homo sapiens, UniProt P29274)
# Construct: expressed in transfected cells; host or cells: CHO cell membranes
# Sequence (P29274 whole entry): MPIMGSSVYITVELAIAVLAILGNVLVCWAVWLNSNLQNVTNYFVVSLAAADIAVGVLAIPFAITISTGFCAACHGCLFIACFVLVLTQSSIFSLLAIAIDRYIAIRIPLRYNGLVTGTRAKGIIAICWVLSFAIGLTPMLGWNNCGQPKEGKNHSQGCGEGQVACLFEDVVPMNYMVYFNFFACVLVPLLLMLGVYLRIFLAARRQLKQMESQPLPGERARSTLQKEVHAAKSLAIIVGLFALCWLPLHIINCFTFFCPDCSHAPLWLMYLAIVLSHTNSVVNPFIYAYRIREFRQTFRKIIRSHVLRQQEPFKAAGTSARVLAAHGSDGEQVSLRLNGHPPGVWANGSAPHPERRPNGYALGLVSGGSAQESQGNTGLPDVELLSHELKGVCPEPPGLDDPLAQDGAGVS
# assay.info: Adenosine receptor TR-FRET binding assay, A2a
# condition.set: Table 9, further testing; displacement of 100 nM CA200645, CHO cell membranes
Counter-ions that a name gives are not always drawn.
Please provide measured Ki for the entries that follow.
I'd appreciate it if you wrote the number followed by its unit.

Which Ki value belongs to Cc1cccnc1CNC(=O)c1c(N)nc(-c2ccco2)nc1Cl [Example 13] ?
20 nM

Which Ki value belongs to Cc1cccnc1CNC(=O)c1c(N)nc(-c2ccco2)nc1OCC(F)(F)F [Example 20.2] ?
0.21 nM

Which Ki value belongs to Cc1cccnc1CNC(=O)c1nnc(-c2cccc(F)c2)nc1N [Example 7] ?
12 nM

Which Ki value belongs to Nc1nc(-c2cccc(F)c2)ncc1C(=O)NCc1ccc(F)cc1 [Example 10.4] ?
959 nM

Which Ki value belongs to Nc1nc(-c2cccc(F)c2)ncc1C(=O)NCCc1ccc(O)cc1 [Example 5.7] ?
505 nM

Which Ki value belongs to COc1nc(-c2ccco2)nc(N)c1C(=O)NCc1ncccc1C(F)(F)F [Example 18.1] ?
0.23 nM

Which Ki value belongs to Nc1nc(-c2cccc(F)c2)ncc1C(=O)NCc1ccccc1 [Example 4] ?
75 nM

Which Ki value belongs to Cc1cccnc1CNC(=O)c1c(N)nc(-c2ccco2)nc1OCCO [Example 20.1] ?
0.13 nM

Which Ki value belongs to CC(=O)NCCOc1nc(-c2ccco2)nc(N)c1C(=O)NCc1ncccc1C [Example 20] ?
1.1 nM

Which Ki value belongs to Cc1cccc(CNC(=O)c2cnc(-c3ccco3)nc2N)n1 [Example 5.32] ?
3.3 nM

Which Ki value belongs to CC(=O)NCCNc1nc(-c2ccco2)nc(N)c1C(=O)NCc1ncccc1C [Example 22] ?
6.8 nM

Which Ki value belongs to Cc1ccc(CNC(=O)c2cnc(-c3cccc(F)c3)nc2N)cc1 [Example 10] ?
796 nM

Which Ki value belongs to Nc1nc(-c2ccco2)ncc1C(=O)NCc1ccc(Cl)cc1Cl [Example 5.19] ?
15 nM

Which Ki value belongs to Nc1nc(-c2cccc(F)c2)ncc1C(=O)NCc1c(Cl)cccc1Cl [Example 10.6] ?
32 nM

Which Ki value belongs to COc1ccc(CNC(=O)c2cnc(-c3ccco3)nc2N)cc1 [Example 5.11] ?
495 nM

Which Ki value belongs to Nc1nc(-c2cccc(F)c2)ncc1C(=O)NCc1ncccc1C(F)(F)F [Example 5.6] ?
29 nM

Which Ki value belongs to CCOc1cccc(F)c1CNC(=O)c1cnc(-c2cccc(F)c2)nc1N [Example 5.3] ?
20 nM

Which Ki value belongs to Nc1nc(-c2ccco2)ncc1C(=O)NCc1ccccc1F [Example 5.18] ?
3.3 nM

Which Ki value belongs to Nc1nc(-c2cccc(F)c2)ncc1C(=O)NCc1ccccc1O [Example 10.1] ?
13 nM

Which Ki value belongs to Cc1cccnc1CNC(=O)c1c(N)nc(-c2ccco2)nc1OCCCN [Example 23.5, dihydrochloride] ?
23 nM

Which Ki value belongs to CC(C)n1ncnc1CNC(=O)c1cnc(-c2ccco2)nc1N [Example 5.27] ?
17 nM

Which Ki value belongs to Nc1nc(-c2cccc(F)c2)ncc1C(=O)NCc1cccc(F)c1 [Example 10.3] ?
180 nM

Which Ki value belongs to Nc1nc(-c2ccco2)ncc1C(=O)NC1CCc2ccccc21 (centres unmarked) [Example 5.23] ?
10 nM

Which Ki value belongs to CC(C)n1ccnc1CNC(=O)c1cnc(-c2ccco2)nc1N [Example 5.33] ?
9.4 nM

Which Ki value belongs to COc1cc(CNC(=O)c2cnc(-c3ccco3)nc2N)cc(OC)c1 [Example 5.43] ?
58 nM

Which Ki value belongs to COCC(C)Oc1nc(-c2ccco2)nc(N)c1C(=O)NCc1ncccc1C (centres unmarked) [Example 20.12] ?
0.21 nM

Which Ki value belongs to Nc1nc(-c2ccco2)ncc1C(=O)NCc1ccccc1C(F)(F)F [Example 5.55] ?
21 nM

Which Ki value belongs to Cc1cccnc1CNC(=O)c1cnc(-c2ccccc2F)nc1N [Example 9] ?
312 nM

Which Ki value belongs to CC(O)CCNC(=O)c1c(N)nc(-c2cccc(C#N)c2)nc1OCCF (centres unmarked) [Example 24.6] ?
7 nM

Which Ki value belongs to COc1nc(-c2ccco2)nc(N)c1C(=O)NCc1ncccc1C [Example 18] ?
0.64 nM

Which Ki value belongs to Nc1nc(-c2ccco2)ncc1C(=O)NCc1ccccc1O [Example 11.2] ?
0.71 nM

Which Ki value belongs to COc1cccc(CNC(=O)c2cnc(-c3ccco3)nc2N)c1OC [Example 5.38] ?
20 nM

Which Ki value belongs to Cc1cccnc1CNC(=O)c1nnc(-c2ccco2)nc1N [Example 2] ?
0.79 nM

Which Ki value belongs to C[C@@H](NC(=O)c1cnc(-c2cccc(F)c2)nc1N)c1ccccc1 [Example 5] ?
329 nM

Which Ki value belongs to Nc1nc(-c2cccc(F)c2)ncc1C(=O)NCc1cc(F)cc(F)c1 [Example 10.7] ?
104 nM

Which Ki value belongs to Cc1cccnc1CNC(=O)c1cnc(-c2nccs2)nc1N [Example 16.1] ?
40 nM

Which Ki value belongs to Cc1ccc(CNC(=O)c2cnc(-c3ccco3)nc2N)cc1 [Example 11.1] ?
31 nM

Which Ki value belongs to Nc1nc(-c2ccco2)ncc1C(=O)NCc1cccc(C(F)(F)F)c1 [Example 5.29] ?
52 nM

----------
Please provide measured pKi for the entries that follow.
# target: Adenosine A3 receptor (Homo sapiens, UniProt P0DMS8)
# Construct: expressed in transfected cells; host or cells: CHO cell membranes
# assay.info: Adenosine receptor TR-FRET binding assay, A3
# condition.set: Table 9, further testing; displacement of 100 nM CA200645, CHO cell membranes; read-out: A3 Ki
pKi is a log-scale quantity: -log10 of the concentration expressed in molar.

Which pKi value belongs to Cc1cccnc1CNC(=O)c1c(N)nc(-c2ccco2)nc1OCCO ?
7.07

Which pKi value belongs to Cc1ccc(-c2ncc(C(=O)NCc3ncccc3C)c(N)n2)o1 ?
6.09

Which pKi value belongs to Cc1cccnc1CNC(=O)c1c(N)nc(-c2ncco2)nc1OCCF ?
7.21

Which pKi value belongs to Cn1ncnc1CNC(=O)c1c(N)nc(-c2cccc(C#N)c2)nc1OCCF ?
5.79

Which pKi value belongs to Nc1nc(-c2cccc(F)c2)ncc1C(=O)NCc1ccccc1O ?
6.38

Which pKi value belongs to Nc1cccnc1CNC(=O)c1cnc(-c2ccco2)nc1N ?
5.33

Which pKi value belongs to COc1nc(-c2ccco2)nc(N)c1C(=O)NCc1ncccc1C(F)(F)F ?
6.83

Which pKi value belongs to COc1ccccc1CNC(=O)c1cnc(-c2ccco2)nc1N ?
6.12

----------
# target: Adenosine A3 receptor (Homo sapiens)
# Construct: expressed in transfected cells; host or cells: CHO cell membranes
# Sequence (P0DMS8 1-318): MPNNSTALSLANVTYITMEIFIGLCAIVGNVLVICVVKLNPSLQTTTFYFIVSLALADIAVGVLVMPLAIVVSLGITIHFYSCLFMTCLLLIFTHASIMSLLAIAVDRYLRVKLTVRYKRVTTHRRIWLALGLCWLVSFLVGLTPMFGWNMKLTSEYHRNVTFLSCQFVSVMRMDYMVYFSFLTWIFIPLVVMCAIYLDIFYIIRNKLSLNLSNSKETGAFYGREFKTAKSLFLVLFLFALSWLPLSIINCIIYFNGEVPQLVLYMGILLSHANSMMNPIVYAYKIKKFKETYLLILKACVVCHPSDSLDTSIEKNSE
# assay.info: Adenosine receptor TR-FRET binding assay, A3
# condition.set: Table 9, further testing; displacement of 100 nM CA200645, CHO cell membranes; read-out: A3 Ki
measured.property: pKi
pKi is a log-scale quantity: -log10 of the concentration expressed in molar.

Which pKi value belongs to Nc1nc(-c2ccco2)ncc1C(=O)N[C@H](CO)c1ccccc1 ?
5.83

Which pKi value belongs to Nc1nc(-c2ccco2)ncc1C(=O)NCc1ccccc1F ?
5.71

Which pKi value belongs to Nc1nc(-c2ccco2)ncc1C(=O)NCc1nccc(C(F)(F)F)n1 ?
5.34

Which pKi value belongs to CC(C)n1ncnc1CNC(=O)c1cnc(-c2cccc(F)c2)nc1N ?
5.60

Which pKi value belongs to Cc1cccnc1CNC(=O)c1c(N)nc(-c2ccco2)nc1OCCCO ?
7.62

Which pKi value belongs to Nc1nc(-c2cccc(F)c2)ncc1C(=O)NCc1ncccc1Cl ?
6.43

Which pKi value belongs to Nc1nc(-c2ccco2)ncc1C(=O)NCc1ccccc1Cl ?
5.66

Which pKi value belongs to Cc1cccnc1CNC(=O)c1c(N)nc(-c2ccco2)nc1OCCN1CCNCC1 ?
5.17

Which pKi value belongs to Cc1ccc(CNC(=O)c2cnc(-c3cccc(F)c3)nc2N)cc1 ?
5.75
